Provenance of the data: patent US9012651B2

Molecular target: UniProtKB Q8NET8
Test: Calcium flux assay (FLIPR TETRA), inhibition of the 2-APB response
Conditions: recombinant HEK293 cells stably expressing TRPV3, Calcium-4 dye, 2-APB at its EC80
Protocol: (i) In Vitro Methods-Calcium Flux Assays: Experiments were conducted using the FLIPR^TETRA®. […] The intensity of the fluorescence was captured and digitally transferred to an interfaced PC. The peak increase in fluorescence over baseline (relative fluorescence units) was calculated and expressed as the percentage of the maximal 2-APB (2-aminoethoxyldiphenyl borate) response (in the absence of compound).
MEASURED PARAMETER: IC50 (nM)

Here is how some molecules turned out for IC50.
- MOLECULE: "CC(C)[C@H](CO)NCc1nc(-c2cccc(OC(F)(F)F)c2)ccc1F"
  IC50 (nM): 1120
- MOLECULE: "CC(C)[C@H](CO)NCc1nc(-c2cccc(N(C)C)c2)ccc1F"
  IC50 (nM): 460
- MOLECULE: "CC(C)[C@H](CO)NCc1cccc(N2CCCCC2)n1"
  IC50 (nM): 1940
- MOLECULE: "OCC1(NCc2cccc(-c3cc(C(F)(F)F)cc(C(F)(F)F)c3)n2)CCCC1"
  IC50 (nM): 220
- MOLECULE: "CC(O)C(C)NCc1ccnc(-c2ccc(C(F)(F)F)nc2)n1 (stereo not drawn)"
  IC50 (nM): 8150
- MOLECULE: "CC(C)[C@H](CO)NCc1ccnc(-c2ccc(C(F)(F)F)nc2)n1"
  IC50 (nM): 2940

[I] CC(C)[C@H](CO)NCc1cccc(C#Cc2ccc(F)cc2)n1
[II] CC(C)[C@H](CO)NCc1nc(-c2cccc(C(=O)N3CCSCC3)c2)ccc1F
Req: Which shows the larger IC50 value: I or II ? Indicate your choice by writing its label.
Resp: II
(II: 4000 nM, I: 170 nM)

----------
Target: human TRPV3 receptors (Homo sapiens (Human), UniProt Q8NET8)
Sequence (Q8NET8 whole entry): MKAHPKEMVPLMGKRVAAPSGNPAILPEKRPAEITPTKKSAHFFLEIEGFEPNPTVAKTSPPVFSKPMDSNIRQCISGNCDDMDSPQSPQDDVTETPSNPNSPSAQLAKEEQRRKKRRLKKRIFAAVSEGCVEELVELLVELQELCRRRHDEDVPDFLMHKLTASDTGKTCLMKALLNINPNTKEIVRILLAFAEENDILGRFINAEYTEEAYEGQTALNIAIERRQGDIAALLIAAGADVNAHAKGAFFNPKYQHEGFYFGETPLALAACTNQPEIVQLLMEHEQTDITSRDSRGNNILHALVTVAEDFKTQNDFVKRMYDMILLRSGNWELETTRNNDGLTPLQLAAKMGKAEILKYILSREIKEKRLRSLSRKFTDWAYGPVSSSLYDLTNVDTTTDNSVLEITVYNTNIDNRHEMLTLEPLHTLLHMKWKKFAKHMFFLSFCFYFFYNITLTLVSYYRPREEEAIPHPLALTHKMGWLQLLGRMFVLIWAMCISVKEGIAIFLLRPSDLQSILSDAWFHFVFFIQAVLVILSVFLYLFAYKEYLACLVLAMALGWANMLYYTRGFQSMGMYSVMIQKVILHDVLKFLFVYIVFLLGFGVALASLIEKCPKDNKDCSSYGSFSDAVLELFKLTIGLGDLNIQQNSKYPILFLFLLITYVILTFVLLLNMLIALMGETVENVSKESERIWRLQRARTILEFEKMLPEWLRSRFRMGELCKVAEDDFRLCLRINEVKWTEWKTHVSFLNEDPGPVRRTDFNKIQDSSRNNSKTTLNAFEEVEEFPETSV
Experiment: Calcium flux assay (FLIPR TETRA), inhibition of the 2-APB response
Settings: recombinant HEK293 cells stably expressing TRPV3, Calcium-4 dye, 2-APB at its EC80
Procedure: (i) In Vitro Methods-Calcium Flux Assays: Experiments were conducted using the FLIPR^TETRA®. […] The intensity of the fluorescence was captured and digitally transferred to an interfaced PC. The peak increase in fluorescence over baseline (relative fluorescence units) was calculated and expressed as the percentage of the maximal 2-APB (2-aminoethoxyldiphenyl borate) response (in the absence of compound).
pIC50: −log10 of the molar value.
MEASURED PARAMETER: pIC50

Here is how some compounds turned out for pIC50.
- COMPOUND: "CC(C)[C@H](CO)NCc1nc(C#CCC2CCCCC2)ccc1F"
  MEASURED TARGET: "human TRPV3 receptors (Homo sapiens (Human), UniProt Q8NET8)"
  MEASURED VALUE: 6.01
- COMPOUND: "CC(C)[C@H](CO)NCc1nc(-c2cccc(S(=O)(=O)N3CCCCC3)c2)ccc1F"
  MEASURED TARGET: "human TRPV3 receptors (Homo sapiens (Human), UniProt Q8NET8)"
  MEASURED VALUE: 6.48
- COMPOUND: "CC(O)C(C)NCc1ccnc(-c2ccc(C(F)(F)F)cc2)n1 (stereo not drawn)"
  MEASURED TARGET: "human TRPV3 receptors (Homo sapiens (Human), UniProt Q8NET8)"
  MEASURED VALUE: 5.73
- COMPOUND: "CC(C)[C@H](CO)NCc1nc(-c2cc(C(F)(F)F)nn2C)ccc1F"
  MEASURED TARGET: "human TRPV3 receptors (Homo sapiens (Human), UniProt Q8NET8)"
  MEASURED VALUE: 6.10

[1] CC(=O)c1cccc(-c2ccc(F)c(CN[C@@H](CO)C(C)C)n2)c1
[2] CC(C)[C@H](CO)NCc1nc(C#CC2CCCCC2)ccc1F
[3] OC[C@H](NCc1ccnc(-c2ccc(C(F)(F)F)cc2)n1)C1CCCCC1
Req: List by increasing pIC50. Your task in answering is to list the labels in the requested order.
Resp: 3, 1, 2

----------
Target: human TRPV3 receptors (Homo sapiens (Human))
Assay: Calcium flux assay (FLIPR TETRA), inhibition of the 2-APB response
Conditions: recombinant HEK293 cells stably expressing TRPV3, Calcium-4 dye, 2-APB at its EC80
pIC50: −log10 of the molar value.
MEASURED PARAMETER: pIC50

- COMPOUND: "OC[C@H]1[C@H]2CC[C@H](C2)[C@H]1NCc1ccnc(-c2ccc(C(F)(F)F)cc2)n1"
  MEASURED VALUE: 5.21
- COMPOUND: "CC(c1ccc(F)cc1)c1ccc(F)c(CN[C@@H](CO)C(C)C)n1 (stereo partly drawn)"
  MEASURED VALUE: 6.32
- COMPOUND: "CCC(C)C(CO)NCc1ccnc(-c2ccc(C(F)(F)F)cc2)n1 (stereo not drawn)"
  MEASURED VALUE: 4.91

[A] CC(C)[C@H](CO)NCc1nc(-c2ccoc2)ccc1F
[B] CC(C)[C@H](CO)NCc1nc(C2CC3CCC2C3)ccc1F (stereo partly drawn)
Req: Which shows the larger pIC50 value: A or B ? Indicate your choice by writing its label.
Resp: A

----------
Biological target: UniProtKB Q8NET8
Assay: Calcium flux assay (FLIPR TETRA), inhibition of the 2-APB response
Settings: recombinant HEK293 cells stably expressing TRPV3, Calcium-4 dye, 2-APB at its EC80
pIC50: −log10 of the molar value.
MEASURED PARAMETER: pIC50

- MOLECULE: "CC(C)[C@@H](NCc1nc(-c2ccc(C(F)(F)F)nc2)ccc1F)C(C)(C)O [Example 106]"
  pIC50: 5.90
- MOLECULE: "CC(C)[C@H](CO)NCc1nc(C#Cc2ccc(F)c(F)c2)ccc1F [Example 239]"
  pIC50: 6.43
- MOLECULE: "CC(C)[C@H](CO)NCc1nc(N2CCc3ccc(C(F)(F)F)cc3C2)ccc1F [Example 103]"
  pIC50: 6.59

[a] CC(C)[C@H](CO)NCc1nc(N2CCc3ccccc3C2)ccc1F [Example 70]
[b] CC(C)[C@H](CO)NCc1nc(-c2cccc(N3CCOCC3)c2)ccc1F [Example 44]
[c] CC(C)[C@H](CO)NCc1ccnc(-c2ccc(Cl)cc2)n1 [Example 34]
[d] CC(C)[C@H](CO)NCc1nc(-c2ccc(C(F)(F)F)cc2)ncc1F [Example 131]
Req: List by increasing pIC50. Your task in answering is to list the labels in the requested order.
Resp: c, b, d, a

----------
Molecular target: human TRPV3 receptors (Homo sapiens (Human))
Assay: Calcium flux assay (FLIPR TETRA), inhibition of the 2-APB response
Settings: recombinant HEK293 cells stably expressing TRPV3, Calcium-4 dye, 2-APB at its EC80
Description: (i) In Vitro Methods-Calcium Flux Assays: Experiments were conducted using the FLIPR^TETRA®. […] The intensity of the fluorescence was captured and digitally transferred to an interfaced PC. The peak increase in fluorescence over baseline (relative fluorescence units) was calculated and expressed as the percentage of the maximal 2-APB (2-aminoethoxyldiphenyl borate) response (in the absence of compound).
pIC50: −log10 of the molar value.
MEASURED PARAMETER: pIC50

- MOLECULE: "CC(C)[C@H](CO)NCc1nc(-c2ccc(C(F)(F)F)s2)ccc1F [Example 290]"
  MEASURED TARGET: "human TRPV3 receptors (Homo sapiens (Human))"
  pIC50: 6.77
- MOLECULE: "CC(C)[C@H](CO)NCc1nc(C2CCC(C)(C)CC2)ccc1F [Example 202]"
  MEASURED TARGET: "human TRPV3 receptors (Homo sapiens (Human))"
  pIC50: 6.10

[I] CC1CCN(C(=O)c2cccc(-c3ccc(F)c(CN[C@@H](CO)C(C)C)n3)c2)CC1 [Example 46]
[II] CC(C)[C@H](CO)NCc1cccc(C#Cc2ccccc2F)n1 [Example 285]
[III] CC(C)[C@H](CO)NCc1nc(-c2ccc(C(F)(F)F)cc2)ccc1F [Example 17]
[IV] CC(C)[C@H](CO)NCc1nc(-c2ccc(OCC(F)(F)F)cc2)ccc1F [Example 53]
Req: Thanks in advance: please rank these 4 entries by pIC50, highest to lowest. Your task in answering is to list the labels in the requested order.
Resp: III, IV, II, I

[I] CC(C)[C@H](CO)NCc1nc(-c2cc(C(F)(F)F)ccc2F)ccc1F [Example 282]
[II] CC(C)[C@H](CO)NCc1nc(-c2cccc(C(=O)N(C)C3CCCCC3)c2)ccc1F [Example 52]
[III] CCCCOc1ccc(-c2cccc(CN[C@@H](CO)C(C)C)n2)cc1Cl [Example 262]
[IV] CC(C)(C)[C@H](CO)NCc1ccnc(-c2ccc(C(F)(F)F)cc2)n1 [Example 147]
Req: List by increasing pIC50. Your task in answering is to list the labels in the requested order.
Resp: IV, II, III, I

[A] Cc1cc(-c2ccc(F)c(CN[C@@H](CO)C(C)C)n2)ccc1F [Example 280]
[B] CC(C)[C@H](CO)NCc1nc(-c2ccc(F)cn2)ccc1F [Example 36]
[C] CC(C)[C@H](CO)NCc1nc(-c2cccc(S(=O)(=O)N(C)C)c2)ccc1F [Example 39]
[D] CCN(CC)C(=O)c1cccc(-c2ccc(F)c(CN[C@@H](CO)C(C)C)n2)c1 [Example 41]
[E] CC(C)[C@H](CO)NCc1nc(-c2ccc(C(F)(F)F)cn2)ccc1F [Example 73]
Req: List by increasing pIC50. Your task in answering is to list the labels in the requested order.
Resp: D, C, B, A, E
